Can you tell me Emax for the items I'm about to list?
Test system: granulocyte progenitor (Gran-lin prog)
protocol.details: MLTA, GranP: concentration-response and QSP model fit
Type: cell-based, human
condition.info: Homo sapiens, 144 h; parameter from QSP model fitting; read-out: Emax_drug_GranP
One number for each entry, in %.

Guide cases for Emax, answers given:
CS(=O)(=O)N1CCN(Cc2cc3nc(-c4cccc5[nH]ncc45)nc(N4CCOCC4)c3s2)CC1 [pictilisib]    60.5
CCN1CCN(Cc2ccc(Nc3ncc(F)c(-c4cc(F)c5nc(C)n(C(C)C)c5c4)n3)nc2)CC1 [abemaciclib]    0.23
Cc1sc2c(c1C)C(c1ccc(Cl)cc1)=N[C@@H](CC(=O)Nc1ccc(O)cc1)c1nnc(C)n1-2 [OTX015]    0.16

Look up Emax for the entries below, preserving their order.
1. O=C1CCC(N2C(=O)c3ccccc3C2=O)C(=O)N1 (stereo not drawn) [thalidomide]
2. CC(=O)O[C@H]1C(=O)[C@@]2(C)[C@H]([C@H](OC(=O)c3ccccc3)[C@]3(O)C[C@H](OC(=O)[C@H](O)[C@@H](NC(=O)c4ccccc4)c4ccccc4)C(C)=C1C3(C)C)[C@]1(OC(C)=O)CO[C@@H]1C[C@@H]2O [paclitaxel]
3. CN(C)C(=O)c1cc2cnc(Nc3ccc(N4CCNCC4)cn3)nc2n1C1CCCC1 [ribociclib]
4. CC(=O)O[C@@]12CO[C@@H]1C[C@H](O)[C@@]1(C)C(=O)[C@H](O)C3=C(C)[C@@H](OC(=O)[C@H](O)[C@@H](NC(=O)OC(C)(C)C)c4ccccc4)C[C@@](O)([C@@H](OC(=O)c4ccccc4)[C@H]21)C3(C)C [docetaxel]
5. CCc1cnn2c(NCc3ccc[n+]([O-])c3)cc(N3CCCC[C@H]3CCO)nc12 [dinaciclib]
6. CC(=O)c1c(C)c2cnc(Nc3ccc(N4CCNCC4)cn3)nc2n(C2CCCC2)c1=O [palbociclib]
7. Nc1cccc2c1CN(C1CCC(=O)NC1=O)C2=O (stereo not drawn) [Lenalidomide]

Out:
1: 0.0121; 2: 0.04; 3: 6.43; 4: 0.04; 5: 0.0135; 6: 4.7; 7: 5.98e-05

Look up Emax for the entries below, preserving their order.
1. Nc1ccn([C@@H]2O[C@H](CO)[C@@H](O)[C@@H]2O)c(=O)n1 [Cytarabine]
2. CC(C)C[C@H](NC(=O)[C@H](Cc1ccccc1)NC(=O)c1cnccn1)B(O)O [Bortezomib]

Out:
104
0.06
